assay: chemical genetic growth profiling, strain panel (AID 1159580);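 also: tested at 20 µM; growth read once vehicle control cultures reached saturation at 30 °C; 1 = growth at the plate median or of vehicle wells; lower values mean less growth of the strain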; settings: S. cerevisiae deletion strains, growth OD, locus YOR290C, strain snf2
The campaign covered roughly 5,500 compounds. About 2,000 (36%) were called active. Roughly 18% stayed inconclusive and do not appear here. Rule as the data show it: active = normalized growth mostly below about 0.91 (no sharp cut-off); inconclusive = no clear call, values can overlap the other calls; inactive = mostly above about 0.92. Some of the results follow.
The reply should be one of these categories: 1 = active, 0 = inactive

Molecule	Group
CCN1C[C@]2(OC(=O)c3ccccc3NC(C)=O)CCC(OC)[C@]34C1[C@H](CC23)[C@@]1(O)CC(OC)[C@H]2CC4C1(O)[C@H]2OC (stereo not given in full)	0
O=c1oc2cc(O)ccc2s1	0
NC12CC3CC(CC(C3)C1)C2	0

Query :: What did this assay record as the result for CC(=O)O[C@H]1CC[C@@]2(C)C(CC[C@]3(C)C2CC=C2C4CC(C)(C)CC[C@]4(C)CC[C@]23C)C1(C)C (stereo not given in full) ?
Result :: 0

Query :: What did this assay record as the result for CC(=O)O[C@@H]1CC[C@@]2(C)C(CC[C@]3(C)C2CC=C2C4CC(C)(C)CC[C@]4(C(=O)O)CC[C@]23C)C1(C)C (stereo not given in full) ?
Result :: 0

Query :: What did this assay record as the result for O=C1c2c(O)cccc2Cc2cccc(O)c21 ?
Result :: 0

Query :: What did this assay record as the result for CC1=NS(=O)(=O)c2cc(Cl)ccc2N1 ?
Result :: 0

Query :: What did this assay record as the result for CC(C)CCCC1(C)C=Cc2c(O)c3c(c(CCC(C)C)c2O1)OC12C(CC4CC1C(C)(C)OC2(CCC(C)C(=O)O)C4O)C3=O (stereo not given) ?
Result :: 0

Query :: What did this assay record as the result for CCCCCCCCCCCCCCC(C(=O)O)C(O)(CC(=O)OC)C(=O)O (stereo not given) ?
Result :: 0

Query :: What did this assay record as the result for CC(=O)NCc1c(I)c(NC(C)=O)c(I)c(C(=O)O)c1I ?
Result :: 0

Query :: What did this assay record as the result for COC(=O)C[C@H]1C(C)(C)C2(O)OC34CC2C(=O)[C@]1(C)C3CC[C@]1(C)C4=CC(=O)O[C@H]1c1ccoc1 (stereo not given in full) ?
Result :: 0

Query :: What did this assay record as the result for C/C=C(/C)C(=O)OC1CCC2(C)C3CCC4C5(O)CC(O)C6(O)C(CN7CC(C)CCC7C6(C)O)C5(O)CC42OC13O (stereo not given) ?
Result :: 0

* * *

assay: chemical genetic growth profiling, strain panel (AID 1159580);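 also: tested at 20 µM; growth read once vehicle control cultures reached saturation at 30 °C; 1 = growth at the plate median or of vehicle wells; lower values mean less growth of the strain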; settings: S. cerevisiae deletion strains, growth OD, locus YIL073C, strain SPO22, hits give low values
Hit rate of the full screen: of about 5,500 compounds, about 2,000 (36%) were called active. Inconclusive results (about 18%) are left out. This is one part of the list.
Recorded normalized growth by entry
Form: value (number only, do not type unit).

Observe how each entry below is paired with its result.
Compound	Reported Metric	Reported
CO[C@@]12[C@@H]3NC3CN1C1=C(C(=O)C(N)=C(C)C1=O)[C@@H]2COC(N)=O (some centres undefined)	normalized growth	0.914
COC(=O)Nc1nc2ccc(Sc3ccccc3)cc2[nH]1	normalized growth	0.998
CCCOc1ccccc1-c1nc2n[nH]nc2c(=O)[nH]1	normalized growth	1.08
COc1c(CC(=O)c2cc3c(cc2O)OC(C)(C)C(O)C3)ccc2c1C=CC(C)(C)O2 (centres undefined)	normalized growth	1.05
COc1cc(C(=O)O[C@H]2CC[C@@]3(C)[C@@H]4CC[C@H]5[C@]6(O)C[C@H](O)[C@@]7(O)[C@@H](CN8C[C@@H](C)CC[C@H]8[C@@]7(C)O)[C@]6(O)C[C@@]53O[C@]24O)cc(OC)c1OC	normalized growth	1.02

In plain terms, COC(=O)Nc1nc2ccc(C(=O)c3ccccc3)cc2[nH]1 has a documented normalized growth of 0.998

In plain terms, CNCc1ccccc1 has a documented normalized growth of 1.01

In plain terms, C/C=C(/C)C(=O)O[C@H]1CC[C@@]2(C)[C@@H]3CC[C@H]4[C@]5(O)C[C@H](O)[C@@]6(O)[C@@H](CN7C[C@@H](C)CC[C@H]7[C@@]6(C)O)[C@]5(O)C[C@@]42O[C@]13O has a documented normalized growth of 0.949

In plain terms, CCOC(=O)OC(C)OC(=O)C1N2C(=O)C(NC(=O)[C@H](N)c3ccccc3)C2SC1(C)C (some centres undefined) has a documented normalized growth of 0.966
